Molecular target: NgBCCP (Neisseria gonorrhoeae bacterial peroxidase) (Neisseria gonorrhoeae, UniProt Q5F5Z9)
Construct: globular domain only (lipid anchor and AAEAP linker absent), pelB signal peptide, C-terminal His-tag; E. coli BL21(DE3) with pEC86; 38 kDa; di-heme c; Ca-dependent monomer/dimer equilibrium, dimer in crystal
Sequence (Q5F5Z9 59-387): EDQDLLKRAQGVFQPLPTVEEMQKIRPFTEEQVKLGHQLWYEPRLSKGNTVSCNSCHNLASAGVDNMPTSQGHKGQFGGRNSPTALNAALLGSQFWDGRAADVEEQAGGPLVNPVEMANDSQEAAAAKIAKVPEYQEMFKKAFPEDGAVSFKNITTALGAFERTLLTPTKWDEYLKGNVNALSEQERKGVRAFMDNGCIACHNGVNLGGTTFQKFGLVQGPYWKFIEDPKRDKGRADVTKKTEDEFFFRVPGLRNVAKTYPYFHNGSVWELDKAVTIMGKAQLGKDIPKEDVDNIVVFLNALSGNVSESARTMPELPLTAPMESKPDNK
Assay: steady-state kinetics, ABTS oxidation at […] nm
parameter_measured: pKi
As a rule, pKi stands for the negative log10 of the concentration, concentration in M.

Q: Name the reported pKi value associated with the compound `c1c[nH]cn1`
A: 2.05
